Test system: HCT-116 human colon carcinoma cells
MEASUREMENT PROTOCOL: Cytotoxicity (in vitro) MTS assay in HCT-116 human colon carcinoma cells
Type: cell-based
CONDITION DETAILS: Homo sapiens, HCT-116, 72 h, read-out: IC50 HCT 116, HCT-116 cells, MTS assay, 72 hours at 37° C.; drug concentration required to inhibit cell proliferation to 50% of untreated control
Consider the following molecules; for each one, report its IC50.
Give your result in nM as a bare value.

Entry CCS[C@H]1C[C@H]2OC[C@@]2(OC(C)=O)[C@H]2[C@H](OC(=O)c3ccccc3)[C@]3(O)C[C@H](OC(=O)[C@H](O)[C@@H](NC(=O)c4ccccc4)c4ccccc4)C(C)=C([C@@H](OC(C)=O)C(=O)[C@]12C)C3(C)C [Compound 24a, 7-deoxy-7β-thioethylpaclitaxel] : reported IC50 = ?
4.02

Entry C=CS[C@H]1C[C@H]2OC[C@@]2(OC(C)=O)[C@H]2[C@H](OC(=O)c3ccccc3)[C@]3(O)C[C@H](OC(=O)[C@H](O)[C@@H](NC(=O)c4ccccc4)c4ccccc4)C(C)=C([C@@H](OC(C)=O)C(=O)[C@]12C)C3(C)C [Compound 27a, 7-deoxy-7β-thiovinylpaclitaxel] : reported IC50 = ?
1.2

Entry CC(=O)O[C@H]1C(=O)[C@]2(C)[C@@H](SCCO)C[C@H]3OC[C@@]3(OC(C)=O)[C@H]2[C@H](OC(=O)c2ccccc2)[C@]2(O)C[C@H](OC(=O)[C@H](O)[C@@H](NC(=O)c3ccccc3)c3ccccc3)C(C)=C1C2(C)C [Compound 20a, 7-deoxy-7β-(2-hydroxethylthio)paclitaxel] : reported IC50 = ?
0.82

###

Consider the following compounds; for each one, report its IC50.
System: HCT-116 human colon carcinoma cells
MEASUREMENT PROTOCOL: Cytotoxicity (in vitro) MTS assay in HCT-116 human colon carcinoma cells
Format: cell-based
CONDITION DETAILS: Homo sapiens, HCT-116, 72 h, read-out: IC50 HCT 116, HCT-116 cells, MTS assay, 72 hours at 37° C.; drug concentration required to inhibit cell proliferation to 50% of untreated control
Give your result in pM as a bare value.

Entry CS[C@H]1C[C@H]2OC[C@@]2(OC(C)=O)[C@H]2[C@H](OC(=O)c3ccccc3)[C@]3(O)C[C@H](OC(=O)[C@H](O)[C@@H](NC(=O)c4ccccc4)c4ccccc4)C(C)=C([C@@H](OC(C)=O)C(=O)[C@]12C)C3(C)C [Compound 18a, 7-deoxy-7β-thiomethylpaclitaxel] : reported IC50 = ?
200

Entry CS[C@H]1C[C@H]2OC[C@@]2(OC(C)=O)[C@H]2[C@H](OC(=O)c3ccccc3)[C@]3(O)C[C@H](OC(=O)[C@H](O)[C@@H](NC(=O)OC(C)(C)C)c4ccccc4)C(C)=C([C@@H](OC(C)=O)C(=O)[C@]12C)C3(C)C [Compound 22a] : reported IC50 = ?
300

Entry COCS[C@H]1C[C@H]2OC[C@@]2(OC(C)=O)[C@H]2[C@H](OC(=O)c3ccccc3)[C@]3(O)C[C@H](OC(=O)[C@H](O)[C@@H](NC(=O)c4ccccc4)c4ccccc4)C(C)=C([C@@H](OC(C)=O)C(=O)[C@]12C)C3(C)C [Compound 16a, 7-deoxy-7β-thiomethoxymethyl paclitaxel] : reported IC50 = ?
500
